# Test system: Plasmodium berghei
# assay procedure: Antimalarial activity as reduced parasitaemia at day 4 against Plasmodium berghei N infected TSW mice (Mus musculus) perorally dosed 3 hrs post infection then daily
# Format: functional
# study conditions: po
reported property: ED50 (mg/kg/day)
Report only the number, with the unit mg/kg/day understood.

[[record]]
smiles_notation = "COC(=O)[C@@]12OC[C@]34[C@H]([C@@H](O)[C@@H]1O)[C@@]1(C)CC(=O)C(O)=C(C)[C@@H]1C[C@H]3OC(=O)[C@H](OC(C)=O)[C@@H]24"
reported_property = "ED50"
endpoint_result = 0.9


stdin: I'd like to know its ED50. The compound in question is COC(=O)[C@@]12OC[C@]34[C@H]([C@@H](O)[C@@H]1O)[C@@]1(C)CC(=O)C(O)=C(C)[C@@H]1C[C@H]3OC(=O)[C@H](OC(=O)CC(C)C)[C@@H]24
stdout: 3.36

stdin: Which ED50 value belongs to COC(=O)[C@]12OC[C@]34[C@H]([C@@H](O)[C@@H]1O)[C@@]1(C)CC(=O)C(O)=C(C)[C@@H]1C[C@H]3OC(=O)[C@H](OC(=O)C=C(C)C)[C@@H]24 ?
stdout: 1.27

stdin: Dear colleague, I am looking for the recorded ED50 of the following compound: CC1=CC(=O)[C@@H](O)[C@]2(C)[C@H]3[C@@H](O)[C@H](O)[C@]4(C)OC[C@@]35[C@@H](C[C@@H]12)OC(=O)[C@H](O)[C@]54O
stdout: 2.79

====

# System: Plasmodium berghei
# assay procedure: Antimalarial activity as reduced parasitaemia at day 4 against Plasmodium berghei N infected TSW mice (Mus musculus) perorally dosed 3 hrs post infection then daily
# Assay type: functional
# study conditions: po
Property: ED90; scope: individual compounds

stdin: // lookup ED90 for COC(=O)[C@]12OC[C@]34[C@H]([C@@H](O)[C@@H]1O)[C@@]1(C)CC(=O)C(O)=C(C)[C@@H]1C[C@H]3OC(=O)[C@H](OC(=O)C=C(C)C)[C@@H]24
stdout: 3.03 mg/kg/day

stdin: Could you share which ED90 value was measured for COC(=O)[C@@]12OC[C@]34[C@H]([C@@H](O)[C@@H]1O)[C@@]1(C)CC(=O)C(O)=C(C)[C@@H]1C[C@H]3OC(=O)[C@H](OC(C)=O)[C@@H]24 ?
stdout: 2.82 mg/kg/day

stdin: Recorded ED90 of CC1=CC(=O)[C@@H](O)[C@]2(C)[C@H]3[C@@H](O)[C@H](O)[C@]4(C)OC[C@@]35[C@@H](C[C@@H]12)OC(=O)[C@H](O)[C@]54O , please.
stdout: 8.19 mg/kg/day

stdin: Consider the compound shown here: COC(=O)[C@@]12OC[C@]34[C@H]([C@@H](O)[C@@H]1O)[C@@]1(C)CC(=O)C(O)=C(C)[C@@H]1C[C@H]3OC(=O)[C@H](OC(=O)CC(C)C)[C@@H]24 What is its recorded ED90?
stdout: 26.7 mg/kg/day
